Biological target: CCR1 (Homo sapiens, UniProt P32246)
Sequence (P32246 1-355): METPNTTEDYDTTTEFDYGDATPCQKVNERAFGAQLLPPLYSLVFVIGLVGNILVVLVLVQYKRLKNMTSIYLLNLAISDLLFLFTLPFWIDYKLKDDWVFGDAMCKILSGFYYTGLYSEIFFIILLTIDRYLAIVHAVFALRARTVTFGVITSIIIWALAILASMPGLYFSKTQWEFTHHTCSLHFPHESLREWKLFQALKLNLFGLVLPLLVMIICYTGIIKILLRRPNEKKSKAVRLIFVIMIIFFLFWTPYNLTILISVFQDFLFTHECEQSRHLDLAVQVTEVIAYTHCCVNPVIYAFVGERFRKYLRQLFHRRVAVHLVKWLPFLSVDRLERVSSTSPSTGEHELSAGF
Test: Method B: calcium flux in CCR1 transfected cells (Calcium 4 dye, […] FDSS6000), block of the CCR1/MIP-1α interaction
Type: cell-based
Conditions: Method B: Calcium 4 dye, MIP-1alpha at EC80
Recorded IC50 determines the group label, using lo (below 5 nM), med (5 nM to below 20 nM), hi (20 nM or more)

                                   compound  label_value
0  CC[C@H](NC(=O)c1cncc2c1cnn2-c1ccc(F)cc1)c1ccnc(N2CCN(C)CC2)c1          med
1  CCC(NC(=O)c1cncc2c1cnn2-c1ccc(F)cc1)C1CCCN(S(C)(=O)=O)C1 (stereo not drawn)           lo
2  CC[C@H](NC(=O)c1cncc2c1cnn2-c1ccc(F)cc1)c1ccc(S(C)(=O)=O)c(O)c1           lo
3  CCC(C)(NC(=O)c1cncc2c1cnn2-c1ccc(F)cc1)c1ccnc(Br)c1 (stereo not drawn)          med
4  CCOC(=O)Cn1cc([C@H](CC)NC(=O)c2cncc3c2cnn3-c2ccc(F)cc2)cn1           hi
5  C[C@H](NC(=O)c1cncc2c1cnn2-c1ccc(F)cc1)c1cnc(S(C)(=O)=O)s1          med
6  C[C@H](NC(=O)c1cncc2c1cnn2-c1ccc(F)cc1)c1ccnc(S(=O)(=O)CCCO)c1           hi
7  CC[C@H](NC(=O)c1cncc2c1cnn2-c1ccc(F)cc1)c1ccccn1           hi

Value source: patent US8063065B2
